Experiment: In vitro human liver microsome intrinsic clearance (HLM Clint)
Type: in vitro ADME
Conditions: liver microsomes, pH 7.4, 0.1 μM test compound, 0.1 mg/mL protein, 1 mM NADPH, 37° C.
propertyMeasured: microsomal CLint at 0.1 μM

Quick one: microsomal CLint at 0.1 μM for C[C@@H]1CN(CCNc2cnc3ccc(-c4nc[nH]c4-c4cc(Cl)ccc4F)nc3c2)C[C@H](C)N1 [compound of Formula I] ?
> 250 µL/min/mg

Where these numbers come from: patent US20210387983A1
